Tested on: SF-295 CNS
PROTOCOL: NCI-60 one-dose screen, 48 h (100 = growth as untreated, 0 = no growth, -100 = all killed)
COND: 10 µM unless noted
About 83,000 compounds went through this panel and 20% of them were active in at least one assay; those are over-represented in the sample as a whole.
// reported growth for each item listed
The reply should be a number in %, with the unit left off.

> print(dat)
                                test.smiles  obs.value
1  COc1ccc(-c2ccnc3c(C#N)c(Nc4ccccc4)nn23)cc1OC       93.2
2  CN1CCN(c2nc(-c3cnc4ccccc4n3)cc3ccccc23)CC1       89.9
3  C/C(=C(/c1ccc(O)cc1)c1ccc(OCCN2CCCCCC2)cc1)c1ccccc1         44
4  CC(=O)Nc1ccc(NC(=O)Nc2cccc(-c3nc(-c4ccc(NC(=O)c5cccnc5)cc4Cl)no3)c2)cc1C(F)(F)F      -69.6

The record that follows has no growth shown yet.
The measured growth associated with CCC(=O)Nc1cc(Nc2cc(NC3CC3)n3ncc(C#N)c3n2)ccc1C reads 21.7

----------
Test system: MOLT-4 leukemia
PROTOCOL: NCI-60 one-dose screen, 48 h (100 = growth as untreated, 0 = no growth, -100 = all killed)
COND: 10 µM unless noted
Compounds without any hit were thinned out: in the full panel of roughly 83,000, 20% have a hit.
The label is class 1 for growth below 10% and class 0 for growth equal to or exceeding 10%.

Observe how each entry below is paired with its result.
COMPOUND	GROUP LABEL
CC(C)C(=O)Nc1ccc(-c2nc(-c3cccc(O)c3)c(-c3ccnc(Br)c3)[nH]2)cc1	class 1
O=C(/C=C1\C=CN(CCCCO)c2ccccc21)n1ccc2ccccc21	class 0
COc1ccc(CN2C(=O)/C(=C/c3nc(CO)cs3)SC2=S)cc1	class 0

In plain terms, does CC(C)SC1=NC(=C(C(=N1)NC2=ClC=CC=C2)C#N)C3=CC=CC=C3 come in under 10% for growth? class 0

Given Nc1nc(N)c2c(n1)NC(c1ccccc1)CC(c1ccc(Nc3nc(NCCO)nc(Nc4ccc(Cl)cc4)n3)cc1)=N2 (stereo not drawn) , is recorded growth strictly lower than 10%? class 1

Below 10% on growth? Entry O=C(NNc1nc2cc(F)c(F)cc2n2cccc12)c1ccncn1 class 1

# check: growth < 10% for CC1OC(O[C@@H]2[C@H](O)C(CO)OC(O[C@H]3COC(O[C@H]4CC[C@]5(C)[C@H]6CC[C@]78OC[C@@]9(CCC(C)(C)C[C@H]97)[C@H](O)C[C@@]8(C)[C@]6(C)CC[C@H]5C4(C)C)[C@@H](OC4OC(CO)[C@@H](O)[C@@H](O)[C@@H]4O)[C@@H]3O)[C@H]2OC2OC[C@@H](O)[C@@H](O)[C@@H]2O)[C@@H](O)[C@@H](O)[C@H]1O (stereo partly drawn) class 1

Could you please tell me whether growth recorded for CCCC(=O)NC(c1cccnc1)c1ccc2c(C)ccnc2c1O (stereo not drawn) is less than 10%? class 0

----------
Tested on: K-562 leukemia
PROTOCOL: NCI-60 one-dose screen, 48 h (100 = growth as untreated, 0 = no growth, -100 = all killed)
COND: 10 µM unless noted
About 83,000 compounds went through this panel and 20% of them were active in at least one assay; those are over-represented in the sample as a whole.
Is growth at least 20%? Then MET. If not, NOT MET.

MOLECULE	TGT	GROUP LABEL
CN1CCN(c2nc(-c3cnc4ccccc4n3)cc3ccccc23)CC1	K-562 leukemia	NOT MET

Could you please find out whether O=C(/C=C/c1cn(-c2ccccc2)nc1-c1ccc(Cl)cc1)c1cc2ccccc2oc1=O has growth that meets 20% or exceeds it? MET

Is growth for CCNC(=O)Oc1ccc(/C(=C(/C)c2ccc(Cl)cc2)c2ccc(OCCN3CCCC3)cc2)cc1 at or above 20%? NOT MET

Please indicate if the recorded growth for CCOC(=O)c1c(NC(=O)c2cccc(C(F)(F)F)c2)sc2c(CN3CCN(C)CC3)c(O)ccc12 meets or exceeds 20%. NOT MET

Kindly determine if growth recorded for CC(=O)c1sc(Nc2cccc(Nc3nc(C)c(C)s3)c2)nc1C is above or exactly 20%. MET

Assess whether reported growth for CC[C@H](C)[C@H]1NC(=O)[C@@H]([C@H](O)C(C)C)NC(=O)[C@@H](C)N(C)C(=O)[C@H](C)N(C)C(=O)[C@H](CC(C)C)NC(=O)[C@H](CC(C)C)N(C)C(=O)[C@H](C)N(C)C1=O sits at 20% or higher. NOT MET

Does growth meet or surpass 20% for NNC(=O)c1sc2nc(-c3cnccn3)cc(-c3cccs3)c2c1N ? MET

Determine whether this molecule has growth no lower than 20%: C#CCOc1ccc(C(Nc2cc(Cl)ccc2Cl)c2nnnn2C2CCCCC2)cc1 (stereo unspecified) MET

Confirm if growth reported for the molecule O=C(NCCNc1cc(-c2cn(-c3ccccc3)nc2-c2cccc(O)c2)ccn1)Nc1ccc(Cl)c(C(F)(F)F)c1 is 20% or above. MET

Is growth for Oc1ccc(CSc2nnc(-c3ccc(Oc4ccccc4)cc3)n2-c2ccccc2)c2cccnc12 at or above 20%? NOT MET

Identify whether the reported growth of the following molecule is 20% or greater: COc1ccc(Cn2cc3c(c2-c2cc(OC)c(OC)c(OC)c2)CCCc2cnoc2-3)cc1 NOT MET

----------
Listed below: growth values for each entry.
Test system: UO-31 renal
PROTOCOL: NCI-60 one-dose screen, 48 h (100 = growth as untreated, 0 = no growth, -100 = all killed)
COND: 10 µM unless noted
Compounds without any hit were thinned out: in the full panel of roughly 83,000, 20% have a hit.
Only the number, expressed in %, is required.

Here is how some molecules turned out for growth.
> print(dat)
                                   molecule  metric.name  obs.value
1  COc1ccc(NC(=O)[C@H](C)NC(=O)OC(C)(C)C)cc1C(=O)Nc1cccc(-c2cc(=O)c3c(OC)c(OC)c(OC)cc3o2)c1       growth       16.8
2  Cc1cc(=O)n2nc(-c3cn(C)c4ccc(Cl)cc34)sc2n1       growth       87.1
3  CCCC(=O)NC(c1cccnc1)c1cc(Cl)c2cccnc2c1O (centres undefined)       growth       22.3

O=C1c2c(c3c4cccnc4[nH]c3c3ccc4ccccc4c23)C(=O)N1CCN1CCNCC1 yielded growth of 58

----------
System: SR leukemia
PROTOCOL: NCI-60 one-dose screen, 48 h (100 = growth as untreated, 0 = no growth, -100 = all killed)
COND: 10 µM unless noted
This is part of a sample that, as a whole, favours compounds with a hit. Of some 83,000 tested, about 20% had one in any assay.
The threshold is 50%. Values of growth beneath it are tagged 1.0; values meeting or exceeding it are tagged 0.0.

> print(dat)
                                test.smiles  group.label
1  CC(=O)Nc1ccc(C)c(Nc2cc(-c3ccc(-n4cccn4)cc3)[nH]n2)c1          1.0
2  IP(CCCSc1n(Cc2ccc3ccccc3c2)c(-c2ccccc2)c(-c2ccccc2)[n+]1Cc1ccc2ccccc2c1)(c1ccccc1)(c1ccccc1)c1ccccc1          1.0
3  N#Cc1c(NC(=O)c2ccc(F)c(Cl)c2)sc2c1CCC(=O)C2          1.0
4  COc1ccc2c(ccn2C(=O)N2c3ccccc3Sc3ccccc32)c1          1.0
5  COc1cc(CNC(=O)/C=C/c2ccccc2)ccc1OCC(=O)NO          0.0

Regarding O=C(CSc1nnc(-c2ccc(Cl)cc2)n1-c1ccccc1)Nc1ccc(F)cc1 , kindly confirm whether its growth is beneath 50%. 0.0

API: query returns whether the molecule falls strictly under 50% in growth. Query: CN(C)C(=O)c1ccccc1-n1cnc2ccccc2c1=O 0.0

----------
Tested on: A498 renal
PROTOCOL: NCI-60 one-dose screen, 48 h
COND: 10 µM unless noted
About 83,000 compounds went through this panel and 20% of them were active in at least one assay; those are over-represented in the sample as a whole. The source made the active and inactive calls. Rule for the calls: active = growth percent below 10; inactive = the rest.
Thanks in advance; please answer with one of these: T (active), F (inactive)

Solved entries:
> print(dat)
                                   compound  group.label
1  O=[N+]([O-])c1ccc(-c2nnc(SCc3ccc(O)c4ncccc34)n2-c2ccccc2)cc1            F
2  COc1ccc(N2C(=O)c3cc(OC)c(OC)cc3NC2SCc2ccccc2)cc1 (stereo unspecified)            F
3  CC1COc2c(N3CCN(C)CC3)c(F)cc3c(=O)c(C(=O)N/N=C/c4cc[nH]c4)cn1c23 (stereo unspecified)            F
4  Cc1ccc(/C=C/CC(=O)Nc2ccc(C(=O)Nc3ccc(F)cc3N)cc2)cn1            F
5  O=S(=O)(Nc1ccc(-c2nc(-c3cccc(O)c3)c(-c3ccnc(Br)c3)[nH]2)cc1)c1ccccc1            F

Could you check what this test reported for CS(=O)(=O)c1ccc(-c2nn(-c3ccccc3)cc2/C=C/C(=O)c2ccc(Br)cc2)cc1 ? F

Record lookup: outcome of this test for C=C1C(=O)O[C@@H]2/C=C(/C)C3=CC(=O)[C@@](C)(C[C@H](OC(=O)/C(C)=C\C)[C@@H]12)O3 ? F

What call does the record list for CCOC(=O)c1c(NC(=O)c2cccc(C(F)(F)F)c2)sc2c(CN3CCN(C)CC3)c(O)ccc12 ? F
